Target or system: human α-thrombin (Homo sapiens, UniProt P00734)
Construct: Pure human α-thrombin; gift of Dr. T. Lindhout (University of Limburg, Maastricht)
Experiment: Kinetics of hydrolysis of substrates by human α-thrombin in buffer A at 37° C. (Example 2, Table 1)
Assay type: biochemical
Square brackets hold non-standard residues; d marks the D form. Peptide text beside a SMILES is read from it. * marks the point of attachment. pNA = O=[N+]([O-])c1ccc(N*)cc1; Nle = CCCC[C@H](N)C(=O)O
Can you tell me kcat /Km for the items I'm about to list?
Please reply with the bare figure in M/s and do not write the unit itself.

So what does the record say about kcat /Km for C[C@H](N)C(=O)N[C@@H](CCCNC(=N)N)C(=O)Nc1ccc([N+](=O)[O-])cc1.Cl.Cl [2HCl.H-Ala-Arg-pNA] (H-Ala-Arg-pNA) ?
64.9

So what does the record say about kcat /Km for CC(C)[C@H](NC(=O)CN)C(=O)N[C@@H](CCCNC(=N)N)C(=O)Nc1ccc([N+](=O)[O-])cc1.Cl.Cl [2HCl.H-Gly-Val-Arg-pNA] (H-Gly-Val-Arg-pNA) ?
10100

So what does the record say about kcat /Km for CCCC[C@H](NC(=O)[C@@H]1CCCN1C(=O)[C@H](N)Cc1ccccc1)C(=O)Nc1ccc([N+](=O)[O-])cc1.Cl [HCl.H-D-Phe-Pro-Nle-pNA] (H-[dF]-Pro-[Nle]-pNA) ?
75400

So what does the record say about kcat /Km for COC(=O)C(C)(C)C(=O)N[C@@H](C)C(=O)N[C@@H](CCCNC(=N)N)C(=O)Nc1ccc([N+](=O)[O-])cc1.Cl [DMMZ-Ala-Arg-pNA.HCl] ?
7220

So what does the record say about kcat /Km for COC(=O)C(C)C(=O)NCC(=O)NC(CCCNC(=N)N)C(=O)Nc1ccc([N+](=O)[O-])cc1.Cl (mixture of isomers) [MMZ-Gly-Arg-pNA.HCl] ?
3800

Hey, just so you know, these numbers are from patent US6207399A.
